Tested on: HOP-62
Test: NCI tumour cell line growth inhibition, 48 h
The source made the active and inactive calls. Cut-off read from the data, not from the text of the source: active = GI50 up to about 1.1 µM and inactive = higher.
Test Readout: GI50

Entry under test: C#CC(O)/C=C/C(O)CCCC(O)CC#CC(O)C#CCCCCC(O)/C=C/CCCC(O)/C=C/CCCCCCCCCCCCCC(O)C(O)C#CC(=O)O (stereo not given) . Its GI50 was > 25 µM (inactive)

Entry under test: "CCCN(CCC)CCc1cc(C(C)=O)n(S(=O)(=O)c2ccc(C)cc2)c1" . Its GI50 was > 100 µM (inactive)

Entry under test: "CN(Cc1cc(C(C)(C)C)cc(Br)c1O)Cc1cc(C(C)(C)C)cc(Br)c1O" . Its GI50 was 4.08 µM (inactive)

Entry under test: O=C1CC2(CCC(O)(c3ccccc3)C(C(=O)c3ccccc3)C2)C(=O)c2ccccc2N1 (stereo not given) . Its GI50 was > 100 µM (inactive)

Entry under test: "Cc1nnc2n1-c1ccccc1N(Cc1ccccc1)CC2" . Its GI50 was > 100 µM (inactive)

Entry under test: "Cc1ccc(S(=O)(=O)Nn2c(O)c(C#N)c(-c3ccc([N+](=O)[O-])cc3)c(C#N)c2=O)cc1" . Its GI50 was > 100 µM (inactive)

Entry under test: "COC(=O)c1ccc(Cc2ccc(C(=O)OC)o2)o1" . Its GI50 was > 378 µM (inactive)

Entry under test: CC1=NC2(C(=O)O)C3(C(=O)O)N=C(C)OC3(C(F)(F)F)C2(C(F)(F)F)O1 (stereo not given) . Its GI50 was > 100 µM (inactive)

Entry under test: "NS(=O)(=O)c1nnc(NC(=O)c2cccc([N+](=O)[O-])c2)s1" . Its GI50 was > 100 µM (inactive)

Entry under test: "N#Cc1cc(-c2nc3ccc(F)cc3s2)ccc1N" . Its GI50 was 72.1 µM (inactive)

Entry under test: "CCN(CC)CCSc1nc(-c2c[nH]c3nc(C)ccc3c2=O)n[nH]1" . Its GI50 was > 100 µM (inactive)

Entry under test: "Cc1c([N+](=O)[O-])oc2ccc3ccccc3c12" . Its GI50 was > 100 µM (inactive)

Entry under test: "CCCCc1c(N(C)C)c(OC(C)=O)c(-c2cn(C)c3ccccc23)oc1=O" . Its GI50 was 19.8 µM (inactive)

Entry under test: CC(=O)OCC1OC(OC(C)=O)C(Nc2ncc(-c3ccc(C)cc3)s2)C(OC(C)=O)C1OC(C)=O (stereo not given) . Its GI50 was 20.4 µM (inactive)

Entry under test: COC(=O)C1=C(C(=O)OC)c2cc(OC)ccc2C(C(=S)N(C)C)S1 (stereo not given) . Its GI50 was > 100 µM (inactive)

Entry under test: "COc1c(OC)c(OC)c2c(=O)cc(-c3ccc(OC(C)C)cc3)oc2c1OC" . Its GI50 was 18.5 µM (inactive)

Entry under test: "Clc1cc(OCc2nn3c(Cc4ccccc4)nnc3s2)ccc1OCc1nn2c(Cc3ccccc3)nnc2s1" . Its GI50 was 31.8 µM (inactive)

Entry under test: O=C1N/C(=N/N=C/C(O)C(O)C(O)C(O)CO)N/C1=C\c1ccco1 (stereo not given) . Its GI50 was > 100 µM (inactive)

Entry under test: "O=S1(=O)OCCOS(=O)(=O)C1(Br)Cc1ccccc1" . Its GI50 was > 100 µM (inactive)

Entry under test: "O=C(NNCc1ccc(Cl)cc1)Nc1cccc2ccccc12" . Its GI50 was 48.2 µM (inactive)

Entry under test: "c1ccc2c(c1)c1ccccc1n2Cn1c2ccccc2c2ccccc21" . Its GI50 was > 100 µM (inactive)

Entry under test: "COc1cc2c(c(OC)c1OC)C(=O)[C@@H](O)[C@H]2NC(N)=O" . Its GI50 was > 100 µM (inactive)

Entry under test: "C/C(=N\NC(=O)c1ccncc1)c1cccc(C(F)(F)F)c1" . Its GI50 was > 10 µM (inactive)

Entry under test: "Cc1nnc2n1N=C(c1cc(F)c(Cl)cc1Cl)/C(=C/c1ccc3c(c1)OCO3)S2" . Its GI50 was 37.1 µM (inactive)

Entry under test: CC1C2C=C(O)C(=O)C(C2=O)C1c1ccccc1 (stereo not given) . Its GI50 was > 100 µM (inactive)

Entry under test: C=CCOC(=O)N1[C@H]2C#C/C=C\C#C[C@]3(O)C(=O)C[C@H](C)[C@]24O[C@]43C2=CC(=O)C=CC21OC (stereo not given in full) . Its GI50 was 40.2 µM (inactive)

Entry under test: "O=c1c2ccccc2sc2ccccc12" . Its GI50 was > 100 µM (inactive)

Entry under test: "N/C(=N\Nc1ccc(C(=O)O)cc1)c1cnccn1" . Its GI50 was > 100 µM (inactive)

Entry under test: "Cc1cccc2sc(NC(=O)c3cc([N+](=O)[O-])ccc3Cl)nc12" . Its GI50 was 11.8 µM (inactive)

Entry under test: CC(CC=O)Nc1nn2c(=O)c3ccccc3nc2s1 (stereo not given) . Its GI50 was > 100 µM (inactive)
